- Tgt: Syk catalytic domain (aa 356-635 with a C-terminal His-tag) (Homo sapiens, UniProt P43405)
- Construct: His-tag (C); made in house
- Procedure details: In vitro Syk kinase activity measured by trFRET, Syk catalytic domain
- Format: biochemical
- Experimental setup: Syk catalytic domain (aa 356-635), trFRET, 0.001 mM ATP
pIC50: −log10 of the molar value.
Measurement name: pIC50

Examples with answers:
Compound: Cc1nc(-c2ccc(C(C)(C)O)cc2Cl)c2cnc3[nH]ccc3n12
pIC50: 5.00 to 6.00
--
Compound: CCc1c(-c2cn(C)nc2C)[nH]c2ncc3cnn(C)c3c12
pIC50: 5.00 to 6.00
--
Compound: CN(C)CCNC(=O)c1ccc2c(c1)c(-c1cc3c(ncc4cnn(C)c43)[nH]1)cn2C
pIC50: 6.00 to 7.00

Name the recorded pIC50 for Cn1ncc2cnc3[nH]c(-c4ccc5ncccc5c4)cc3c21 . 6.00 to 7.00

Name the recorded pIC50 for CC(C)(O)c1ccc(-c2nc(C(F)(F)F)n3c2cnc2[nH]ccc23)cc1 . 6.00 to 7.00

Name the recorded pIC50 for COCCCNC(=O)c1cccc(-c2cc3c(ncc4cnn(C)c43)[nH]2)c1 . 6.00 to 7.00

Name the recorded pIC50 for CCc1c[nH]c2ncc3c(-c4ccc5nccnc5c4)nn(C)c3c12 . 5.00 to 6.00

Name the recorded pIC50 for COCCCc1ncc2cnc3[nH]c(-c4cn(C)c5ccc(OC)cc45)cc3n12 . > 7.00

Name the recorded pIC50 for CN(C)CC(=O)NCc1cccc(-c2cc3c(ncc4cnn(C)c43)[nH]2)c1 . 6.00 to 7.00

Name the recorded pIC50 for CC(C)(O)c1ccc(-c2nc(-c3cccnc3CO)n3c2cnc2[nH]ccc23)cc1 . 6.00 to 7.00

Name the recorded pIC50 for COc1ccc2c(c1)c(-c1cc3c(ncc4cnn(C)c43)[nH]1)cn2CC(=O)N(C)C . > 7.00

###

- Tgt: Syk catalytic domain (aa 356-635 with a C-terminal His-tag) (Homo sapiens)
- Construct: His-tag (C); made in house
- Procedure details: In vitro Syk kinase activity measured by trFRET, Syk catalytic domain
- Type: biochemical
pIC50: −log10 of the molar value. Structures can show the parent of a compound that is named as a salt.
Reported values of pIC50 for individual entries

Examples with answers:
Molecule: Cn1ncc2cnc3[nH]c(-c4ccc[nH]4)cc3c21 [T.3.1.2]
Recorded measurement: 6.00 to 7.00

Molecule: CCCNC(=O)c1ccc(-c2ncn3c2cnc2[nH]ccc23)cc1 [AC.4.7]
Recorded measurement: 6.00 to 7.00

Molecule: Cn1nc(-c2ccc(S(C)(=O)=O)cc2)c2cnc3[nH]ccc3c21 [AR.1.1]
Recorded measurement: 6.00 to 7.00

Molecule: COc1ccc(-c2ncn3c2cnc2[nH]ccc23)cc1OC [AC.4.8]
Recorded measurement: > 7.00

Molecule: Cc1nc(-c2cccc3nccnc23)c2cnc3[nH]ccc3n12 [AC.1.5]
Recorded measurement: < 5.00

Name the recorded pIC50 for c1cc2c(ncc3c(-c4ccc(OC5CCNC5)cc4)ncn32)[nH]1 (stereo not shown) [T.3.1.5] . 6.00 to 7.00

Name the recorded pIC50 for COc1ccc(-c2nc(C)n3c2cnc2[nH]ccc23)c(Cl)c1 [AC.1.19] . 5.00 to 6.00

Name the recorded pIC50 for O=C(c1ccc(-c2nc(C3CCCCC3)n3c2cnc2[nH]ccc23)cc1)N1CCOCC1 [AC.3.28] . 6.00 to 7.00

Name the recorded pIC50 for COc1ccc(-c2ncn3c2cnc2[nH]cc(C4=CCNCC4)c23)cc1 [P.3.1.12] . 5.00 to 6.00

Name the recorded pIC50 for CCc1c(-c2ccc(C(C)(C)N)cc2)[nH]c2ncc3cnn(C)c3c12 [P.3.1.3] . 6.00 to 7.00

Name the recorded pIC50 for CCc1c(-c2ccc(C(C)(C)O)cc2)[nH]c2ncc3cncn3c12 [S.1.1] . > 7.00

Name the recorded pIC50 for COc1ccc(-c2nn(CCO)c3c2cnc2[nH]ccc23)cc1 [AU.1.3] . 6.00 to 7.00

Name the recorded pIC50 for COc1ccc(-c2n[nH]c3c2cnc2[nH]ccc23)cc1 [AU.1.2] . > 7.00

Name the recorded pIC50 for CCc1c(-c2ccc(C(C)(C)O)cc2)[nH]c2ncc3cnnn3c12 [S.1.8] . > 7.00

Name the recorded pIC50 for Cc1nc(-c2ccc(C3(O)CCNCC3)cc2)c2cnc3[nH]ccc3n12 [P.3.1.5, hydrochloride] . > 7.00

Name the recorded pIC50 for CS(=O)(=O)NCc1ccc(-c2nc(C3CCCCC3)n3c2cnc2[nH]ccc23)cc1 [AC.3.18] . 6.00 to 7.00

###

- Tgt: Syk catalytic domain (aa 356-635 with a C-terminal His-tag) (Homo sapiens)
- Construct: His-tag (C); made in house
- Procedure details: In vitro Syk kinase activity measured by trFRET, Syk catalytic domain
- Format: biochemical
- Experimental setup: Syk catalytic domain (aa 356-635), trFRET, 0.001 mM ATP
Reported values of IC50 for individual entries

Compound: CCc1c(-c2ccc(OC)cc2)[nH]c2ncc3cnn(C)c3c12
Measurement name: IC50
Recorded measurement: 100 to 1000 nM

Compound: CCc1c(-c2ccc(OCCN(C)C)cc2)[nH]c2ncc3cnn(C)c3c12
Measurement name: IC50
Recorded measurement: 1000 to 10000 nM

Please find the next compound below.
Name the recorded IC50 for CS(=O)(=O)c1cccc(-c2cc3c(ncc4cnc(C5CCCOC5)n43)[nH]2)c1 (stereo not drawn) . 100 to 1000 nM

###

- Tgt: Syk catalytic domain (aa 356-635 with a C-terminal His-tag) (Homo sapiens)
- Construct: His-tag (C); made in house
- Procedure details: In vitro Syk kinase activity measured by trFRET, Syk catalytic domain
- Type: biochemical
- Experimental setup: Syk catalytic domain (aa 356-635), trFRET, 0.001 mM ATP
Measurement name: IC50

Examples with answers:
Sample smiles: COc1ccc2c(c1)c(-c1cc3c(ncc4cnc(CN)n43)[nH]1)cn2C
Tgt: Syk catalytic domain (aa 356-635 with a C-terminal His-tag) (Homo sapiens)
IC50: 100 to 1000 nM
//
Sample smiles: COc1ccc(-c2nc(CCN(C)C)n3c2cnc2[nH]ccc23)cc1
Tgt: Syk catalytic domain (aa 356-635 with a C-terminal His-tag) (Homo sapiens)
IC50: 1000 to 10000 nM
//
Sample smiles: Cn1ncc2cnc3[nH]c(-c4cccc(CC(=O)NCCN5CCOCC5)c4)cc3c21
Tgt: Syk catalytic domain (aa 356-635 with a C-terminal His-tag) (Homo sapiens)
IC50: 100 to 1000 nM
//
Sample smiles: CCc1c(-c2ccc(N3CCOCC3)cc2)[nH]c2ncc3cnn(C)c3c12
Tgt: Syk catalytic domain (aa 356-635 with a C-terminal His-tag) (Homo sapiens)
IC50: 100 to 1000 nM

Name the recorded IC50 for COc1ccc2c(c1)c(-c1cc3c(ncc4cnn(C)c43)[nH]1)cn2CC(=O)N1CCOCC1 . < 100 nM

Name the recorded IC50 for CS(=O)(=O)c1cccc(-c2cc3c(ncc4cnc(CCCN)n43)[nH]2)c1 . 100 to 1000 nM

###

- Tgt: Syk catalytic domain (aa 356-635 with a C-terminal His-tag) (Homo sapiens)
- Construct: His-tag (C); made in house
- Procedure details: In vitro Syk kinase activity measured by trFRET, Syk catalytic domain
- Assay type: biochemical
- Experimental setup: Syk catalytic domain (aa 356-635), trFRET, 0.001 mM ATP
Measurement name: IC50

Molecule: COc1ccc2c(c1)c(-c1cc3c(ncc4cnn(C)c43)[nH]1)cn2CCN1CCOCC1 [N.2.11]
IC50: < 0.1 µM
//
Molecule: COc1ccc(-c2nc(CN(C)C)n3c2cnc2[nH]ccc23)cc1 [N.1.89]
IC50: 1 to 10 µM
//
Molecule: CC(=O)N[C@@H]1C[C@@H](c2nc(-c3ccc(C(C)(C)O)cc3)c3cnc4[nH]ccc4n23)N(S(=O)(=O)C2CC2)C1 (racemic) [N.1.65]
IC50: 1 to 10 µM
//
Molecule: Cn1ncc2cnc3[nH]c(-c4ccc(C(C)(C)O)cc4)c(C#N)c3c21 [D.2.3]
IC50: < 0.1 µM
//
Molecule: Cn1cc(-c2cc3c(ncc4cnn(C)c43)[nH]2)c2cc(C(=O)NS(C)(=O)=O)ccc21 [Example 8]
IC50: < 0.1 µM
//
Molecule: COc1ccc2c(c1)c(-c1nc(C3CCCCC3)n3c1cnc1[nH]ccc13)cn2C [N.1.48]
IC50: 1 to 10 µM

Name the recorded IC50 for CC(=O)NCCCc1ncc2cnc3[nH]c(-c4cnn(C)c4)cc3n12 [J.2.1.3] . 0.1 to 1 µM

Name the recorded IC50 for COc1ccc2c(c1)c(-c1cc3c(ncc4cnn(C)c43)[nH]1)cn2CCN(C)C [N.2.13] . 0.1 to 1 µM
